Taken from patent US8471005B2.

Molecular target: ALK (Homo sapiens)
Construct: host or cells: baculovirus expression system
Assay: ALK Kinase Assay (ELISA/TRF, PLC-γ substrate)
Assay type: biochemical
Conditions: ALK Kinase Inhibition; read-out: ALK Potency
Description: Briefly, each 96-well plate was coated with […] of 10 μg/mL substrate (phospholipase C-γ) in Tris-buffered saline (TBS). […] The reaction was initiated by adding enzyme (30 ng/ml ALK) and was allowed to proceed at 37° C. for 15 minutes. Detection of the phosphorylated product was performed by adding 100 μl/well of Eu—N1 labeled PT66 antibody (Perkin Elmer # AD0041). Data analysis was performed using ActivityBase (IDBS, Guilford, UK). […]
The following molecules are listed with their measured IC50 values.
Measurement name: IC50

molecule="O=C(O)c1ccc(-c2ccc3cnc(Nc4ccc(N5CCOCC5)cc4)nn23)cc1 [Example 45]" system_tested="ALK (Homo sapiens)" value_measured="> 10000 nM"
molecule="CN1CCN(c2ccc(Nc3ncc4ccc(-c5ccccc5Cl)n4n3)cc2)CC1 [Example 25]" system_tested="ALK (Homo sapiens)" value_measured="< 100 nM"
molecule="CN1CCN(c2ccc(Nc3ncc4ccc(-c5ccccc5N(C)S(C)(=O)=O)n4n3)cc2F)CC1 [Example 1421]" system_tested="ALK (Homo sapiens)" value_measured="< 100 nM"
molecule="CN1CCN(C(=O)C2CCCN(c3ccc(Nc4ncc5ccc(-c6ccccc6N(C)S(C)(=O)=O)n5n4)cc3)C2)CC1 (centres unmarked) [Example 447]" system_tested="ALK (Homo sapiens)" value_measured="< 100 nM"
molecule="COc1ncccc1-c1ccc2cnc(Nc3ccc(N4CCN(C)CC4)cc3)nn12 [Example 22]" system_tested="ALK (Homo sapiens)" value_measured="< 100 nM"
molecule="COCCN1CCc2ccc(Nc3ncc4ccc(-c5ccccc5S(=O)(=O)N5CCCC5)n4n3)cc2CC1 [Example 32]" system_tested="ALK (Homo sapiens)" value_measured="100 to 1000 nM"
molecule="CN(c1ncccc1Nc1ccc2cnc(Nc3ccc(N4CCOCC4)cc3)nn12)S(C)(=O)=O [Example 385]" system_tested="ALK (Homo sapiens)" value_measured="1000 to 10000 nM"
molecule="COc1cc(N2CCC(CN3CCN(C)CC3)CC2)ccc1Nc1ncc2ccc(-c3ccccc3N(C)S(C)(=O)=O)n2n1 [Example 467]" system_tested="ALK (Homo sapiens)" value_measured="< 100 nM"

###

target: ALK (Homo sapiens, UniProt Q9UM73); construct: host or cells: baculovirus expression system; assay: ALK Kinase Assay (ELISA/TRF, PLC-γ substrate); type: biochemical; conditions: ALK Kinase Inhibition; read-out: ALK Potency
Sequence (Q9UM73 19-1620): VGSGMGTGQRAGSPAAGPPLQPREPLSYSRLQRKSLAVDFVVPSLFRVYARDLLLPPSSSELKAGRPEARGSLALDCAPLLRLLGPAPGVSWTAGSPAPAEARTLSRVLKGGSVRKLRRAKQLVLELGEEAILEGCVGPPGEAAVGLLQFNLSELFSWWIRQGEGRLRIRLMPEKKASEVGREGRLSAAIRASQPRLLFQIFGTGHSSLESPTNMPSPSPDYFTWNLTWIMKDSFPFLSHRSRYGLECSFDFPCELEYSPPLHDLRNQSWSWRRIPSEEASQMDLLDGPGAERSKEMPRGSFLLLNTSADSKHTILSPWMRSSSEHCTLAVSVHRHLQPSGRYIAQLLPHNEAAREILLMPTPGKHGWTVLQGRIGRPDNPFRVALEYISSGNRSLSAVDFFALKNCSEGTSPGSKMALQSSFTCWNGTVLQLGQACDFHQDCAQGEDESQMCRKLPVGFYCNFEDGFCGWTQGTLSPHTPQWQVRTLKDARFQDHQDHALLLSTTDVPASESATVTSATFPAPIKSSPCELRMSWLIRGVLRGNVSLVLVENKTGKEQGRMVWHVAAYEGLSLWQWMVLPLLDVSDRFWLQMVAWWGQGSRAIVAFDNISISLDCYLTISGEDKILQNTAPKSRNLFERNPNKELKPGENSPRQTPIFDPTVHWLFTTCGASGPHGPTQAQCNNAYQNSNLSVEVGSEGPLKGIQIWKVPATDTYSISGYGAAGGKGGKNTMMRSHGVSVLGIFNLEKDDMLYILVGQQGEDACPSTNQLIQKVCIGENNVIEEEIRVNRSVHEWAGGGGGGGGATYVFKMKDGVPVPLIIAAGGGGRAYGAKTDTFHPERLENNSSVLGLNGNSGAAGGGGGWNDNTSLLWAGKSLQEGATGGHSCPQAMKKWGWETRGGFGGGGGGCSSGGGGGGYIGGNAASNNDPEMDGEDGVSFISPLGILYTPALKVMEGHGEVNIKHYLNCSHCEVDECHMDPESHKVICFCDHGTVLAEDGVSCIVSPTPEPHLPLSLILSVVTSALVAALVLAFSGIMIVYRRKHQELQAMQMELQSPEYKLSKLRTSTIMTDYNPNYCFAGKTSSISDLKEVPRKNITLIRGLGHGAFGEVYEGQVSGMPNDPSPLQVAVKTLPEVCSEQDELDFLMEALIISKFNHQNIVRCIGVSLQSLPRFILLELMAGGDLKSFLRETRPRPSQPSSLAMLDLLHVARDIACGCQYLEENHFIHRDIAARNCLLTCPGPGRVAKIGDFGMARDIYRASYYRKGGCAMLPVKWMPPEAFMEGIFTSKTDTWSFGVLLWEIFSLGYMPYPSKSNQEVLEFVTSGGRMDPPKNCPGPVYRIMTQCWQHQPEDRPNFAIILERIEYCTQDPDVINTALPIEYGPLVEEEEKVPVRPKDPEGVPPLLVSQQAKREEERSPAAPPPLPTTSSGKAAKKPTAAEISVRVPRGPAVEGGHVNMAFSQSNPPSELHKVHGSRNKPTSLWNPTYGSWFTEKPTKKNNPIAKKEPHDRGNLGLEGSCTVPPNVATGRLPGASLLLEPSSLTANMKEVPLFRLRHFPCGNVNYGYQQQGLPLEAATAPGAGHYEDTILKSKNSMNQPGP
Measurement name: IC50

molecule="CN(c1ccccc1-c1ccc2cnc(Nc3cccc(N4CCOCC4)c3)nn12)S(C)(=O)=O [Example 410]" measurement_name=IC50 value_measured="100 to 1000 nM"
molecule="O=C(NCCN1CCOCC1)c1ccc(-c2ccc3cnc(Nc4ccc(N5CCOCC5)cc4)nn23)cc1 [Example 56]" measurement_name=IC50 value_measured="1000 to 10000 nM"
molecule="O=S(=O)(c1cccc(-c2ccc3cnc(Nc4ccc(N5CCOCC5)cc4)nn23)c1)N1CCCC1 [Example 358]" measurement_name=IC50 value_measured="100 to 1000 nM"
molecule="c1ccc(-c2ccc3cnc(Nc4ccc5nc[nH]c5c4)nn23)nc1 [Example 1562]" measurement_name=IC50 value_measured="1000 to 10000 nM"
molecule="N#Cc1cccc(-c2ccc3cnc(Nc4ccc(N5CCOCC5)cc4)nn23)c1 [Example 39]" measurement_name=IC50 value_measured="> 10000 nM"
molecule="CC(C)(C)NS(=O)(=O)c1cccc(-c2ccc3cnc(Nc4ccc5c(c4)NC(=O)C(C)(C)O5)nn23)c1 [Example 1376]" measurement_name=IC50 value_measured="1000 to 10000 nM"
molecule="CN1CCN(c2cccc(Nc3ncc4ccc(-c5cccc(Cl)c5)n4n3)c2)CC1 [Example 161]" measurement_name=IC50 value_measured="100 to 1000 nM"
molecule="C[C@H](O)CN1CCN(c2ccc(Nc3ncc4ccc(-c5cccc(Cl)c5)n4n3)cc2)CC1 [Example 204]" measurement_name=IC50 value_measured="< 100 nM"
molecule="CC(C)(O)CN1CCN(c2ccc(Nc3ncc4ccc(-c5cccc(Cl)c5)n4n3)cc2)CC1 [Example 223]" measurement_name=IC50 value_measured="< 100 nM"
molecule="COc1ccc(Cl)cc1-c1ccc2cnc(Nc3ccc(N4CCN(C[C@H](C)O)CC4)cc3)nn12 [Example 203]" measurement_name=IC50 value_measured="< 100 nM"
molecule="CC(C)S(=O)(=O)c1ccc(-c2ccc3cnc(Nc4cccc(N5CCOCC5)c4)nn23)cc1 [Example 192]" measurement_name=IC50 value_measured="1000 to 10000 nM"
molecule="COc1cc(N2CCC(N3CCOCC3)CC2)ccc1Nc1ncc2ccc(-c3ccccc3N(CCF)S(C)(=O)=O)n2n1 [Example 1463]" measurement_name=IC50 value_measured="< 100 nM"
molecule="CS(=O)(=O)Nc1ccccc1-c1ccc2cnc(Nc3cccc(N4CCOCC4)c3)nn12 [Example 431]" measurement_name=IC50 value_measured="1000 to 10000 nM"
molecule="COc1ccccc1-c1ccc2cnc(Nc3ccc(N4CCN(C)CC4)cc3)nn12 [Example 20]" measurement_name=IC50 value_measured="< 100 nM"
molecule="COc1ccccc1-c1ccc2cnc(Nc3ccc4nc(CN5CCOCC5)[nH]c4c3)nn12 [Example 1518]" measurement_name=IC50 value_measured="100 to 1000 nM"
molecule="CN1CCN(C2CCN(c3ccc(Nc4ncc5ccc(-c6cccc(Cl)c6)n5n4)cc3)CC2)CC1 [Example 312]" measurement_name=IC50 value_measured="< 100 nM"
molecule="CC(C)(C)NS(=O)(=O)c1cccc(-c2ccc3cnc(Nc4ccc(C(N)=O)cc4)nn23)c1 [Example 1399]" measurement_name=IC50 value_measured="1000 to 10000 nM"
molecule="CC(=O)N1CCc2ccc(Nc3ncc4ccc(-c5cccc(S(=O)(=O)NC(C)(C)C)c5)n4n3)cc21 [Example 1372]" measurement_name=IC50 value_measured="> 10000 nM"
molecule="COc1ccccc1-c1ccc2cnc(Nc3ccc(CN4CCN(C)CC4)cc3)nn12 [Example 353]" measurement_name=IC50 value_measured="< 100 nM"
molecule="CN1C(=O)Cc2cc(Nc3ncc4ccc(Nc5cccnc5N(C)S(C)(=O)=O)n4n3)ccc21 [Example 387]" measurement_name=IC50 value_measured="1000 to 10000 nM"
molecule="CCN1CCOC(c2ccc(Nc3ncc4ccc(-c5ccccc5OC)n4n3)cc2)C1 (centres unmarked) [Example 252]" measurement_name=IC50 value_measured="< 100 nM"
molecule="CN1CCN(c2ccc(Nc3ncc4ccc(-c5ccccc5OCC(=O)N(C)C)n4n3)cc2)CC1 [Example 1403]" measurement_name=IC50 value_measured="100 to 1000 nM"
molecule="COCCN1CCc2ccc(Nc3ncc4ccc(-c5ccccc5S(=O)(=O)N(C)C)n4n3)cc2CC1 [Example 31]" measurement_name=IC50 value_measured="100 to 1000 nM"
molecule="COc1ccccc1-c1ccc2cnc(C#N)nn12 [Example 1494]" measurement_name=IC50 value_measured="> 10000 nM"
molecule="c1cncc(-c2ccc3cnc(Nc4ccc(N5CCC(N6CCOCC6)CC5)cc4)nn23)c1 [Example 337]" measurement_name=IC50 value_measured="100 to 1000 nM"
molecule="Cn1cc(-c2ccc3cnc(Nc4cccc(N5CCOCC5)c4)nn23)cn1 [Example 198]" measurement_name=IC50 value_measured="100 to 1000 nM"
molecule="COc1ccc(-c2ccc3cnc(Nc4ccc(N5CCN(CC(N)=O)CC5)c(F)c4)nn23)cn1 [Example 1415]" measurement_name=IC50 value_measured="100 to 1000 nM"
molecule="COc1ccc(OC)c(-c2ccc3cnc(Nc4ccc(N5CCC(N6CCOCC6)CC5)cc4OC)nn23)c1 [Example 1476]" measurement_name=IC50 value_measured="< 100 nM"
molecule="COc1ccccc1-c1ccc2cnc(Nc3cccc(N4CCN(CC(C)(C)O)CC4)c3)nn12 [Example 218]" measurement_name=IC50 value_measured="< 100 nM"
molecule="C[C@@H](O)CN1CCN(c2cccc(Nc3ncc4ccc(-c5cccc(Cl)c5)n4n3)c2)CC1 [Example 215]" measurement_name=IC50 value_measured="< 100 nM"
molecule="CS(=O)(=O)c1cccc(-c2ccc3cnc(Nc4ccc(N5CCC(CO)CC5)cc4)nn23)c1 [Example 96]" measurement_name=IC50 value_measured="100 to 1000 nM"
molecule="COc1cc(N2CCCC(N3CCN(C)CC3)C2)ccc1Nc1ncc2ccc(-c3ccccc3OC)n2n1 (centres unmarked) [Example 235]" measurement_name=IC50 value_measured="< 100 nM"
